System: MCF7
ASSAY_METHOD_TEXT: NCI tumour cell line growth inhibition, 48 h
The source made the active and inactive calls. Rule as the data show it: active = GI50 up to about 1.1 µM and inactive = higher.
Documented GI50 across a set of compounds

Lab note: measured GI50 of N#Cc1ccc(C(O)C(F)(F)c2nc3ccccc3o2)cc1 (stereo not given) was 46.1 µM (inactive)

Further cases:
Lab note: measured GI50 of NCCCCC(N)C(=O)N1CCN(c2nc(N3CCCC3)c3nc(Cl)c(NCc4ccccc4)nc3n2)CC1 (stereo not given) was 19.6 µM (inactive)

Lab note: measured GI50 of COc1cc2c(c(OC)c1OC)C(=O)[C@@H]1[C@H]2N1C(N)=O was > 100 µM (inactive)

Lab note: measured GI50 of COc1c(CC=C(C)C)c(O)c(C(CC(C)C)c2c(O)c(C(C)=O)c(O)c3c2OC(C(C)(C)O)C3)c(O)c1C(C)=O (stereo not given) [ACROFOLIONE A] was 4.26 µM (inactive)

Lab note: measured GI50 of CC(=O)Nc1cc2ccc(=O)oc2cc1Cl was > 100 µM (inactive)

Lab note: measured GI50 of CC(C)CCC1(O)O[C@H]2C[C@H]3[C@@H]4CCC5CC(=O)C=C[C@]5(C)[C@H]4CC[C@]3(C)[C@H]2[C@@H]1C (stereo not given in full) was 7.73 µM (inactive)

Lab note: measured GI50 of COc1ccc(-c2coc3c4c(ccc3c2=O)OCO4)cc1OC was 91 µM (inactive)

Lab note: measured GI50 of CC1(C)CC[C@]2(C(=O)O)CC[C@]3(C)C(=CC[C@@H]4[C@@]5(C)C[C@H](O)[C@H](O)[C@@](C)(C(=O)O)[C@@H]5CC[C@]43C)[C@@H]2C1 was > 100 µM (inactive)

Lab note: measured GI50 of Cc1nc(C(N)=S)sc1C(=O)C/C(=N/N)C(=O)Nc1ccc(Cl)cc1 was 43.1 µM (inactive)

Lab note: measured GI50 of NC(=O)C1=C(O)C[C@@H]2CC3Cc4cccc(O)c4C(=O)C3=C(O)[C@]2(O)C1=O (stereo not given in full) was 1.79 µM (inactive)

Lab note: measured GI50 of NC1CC(=O)c2csc(Br)c21 (stereo not given) was 21.1 µM (inactive)

Lab note: measured GI50 of COC(=O)C1CCC(=O)N1C(c1ccc2c(c1)OCO2)c1ccc2c(c1)OCO2 (stereo not given) was > 100 µM (inactive)

Lab note: measured GI50 of CC(OC(=O)NCn1cc(-c2ccccc2)nn1)c1ccccc1 (stereo not given) was 38.5 µM (inactive)

Lab note: measured GI50 of CN(Cc1cnc2nc(N)nc(N)c2n1)c1ccc(C(=O)NCS(=O)(=O)O)cc1 was 57.9 µM (inactive)

Lab note: measured GI50 of CCOC(=O)c1nnsc1NN was 60.5 µM (inactive)
